# EXPERIMENTAL TARGET: Anti-CD28 scFv (VH-linker 1-VL)
# Sequence (scFv, as listed by the source): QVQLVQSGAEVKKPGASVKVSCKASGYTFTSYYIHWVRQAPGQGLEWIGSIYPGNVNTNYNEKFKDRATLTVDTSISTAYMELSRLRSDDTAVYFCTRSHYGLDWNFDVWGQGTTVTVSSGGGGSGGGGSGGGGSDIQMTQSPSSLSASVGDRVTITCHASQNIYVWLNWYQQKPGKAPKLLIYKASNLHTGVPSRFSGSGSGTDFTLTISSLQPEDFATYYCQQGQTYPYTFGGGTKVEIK
# PROCEDURE DETAILS: phage ELISA: biotinylated anti-CD28 scFv on neutravidin plate, clonal phage supernatant, anti-M13-HRP; wells pre-incubated with soluble CD28 (competitor);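 note: wells pretreated with soluble CD28 protein in blocking buffer before phage addition, no wash in between, reference wells got blocking buffer only, bound phage detected after washing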
PROPERTY LABEL: Phage binding ELISA CD28 scFv signal in presence of CD28

Inquiry: Give Phage binding ELISA CD28 scFv signal in presence of CD28 for MDWCPMTRWNDCYF (Clonal phage from the Peptide-9 library) [Phage-443]
Reply text: 0.078

Inquiry: Write down Phage binding ELISA CD28 scFv signal in presence of CD28 measured for item MDWCPRFWWHECYA (Clonal phage from the Peptide-9 library) [Phage-451]
Reply text: 0.503
